# credit: patent EP4775575A1

# EXPERIMENTAL_DETAILS: Preclinical pharmacokinetic study in rats
# Type: in vivo, Sprague-Dawley (SD) rats
# DETAILS: rat, in vivo; male SD rats, oral gavage (p.o.) 10 mg/kg, plasma
MEASURE_NAME: Cmax (ng/mL)

- [2H]C([2H])([2H])N1CC[C@H](C)n2c1nc1c(F)cc(-c3nc(N[C@@H]4CCOC[C@H]4O)ncc3Cl)cc12 [TA-28]: 990

* * *

# EXPERIMENTAL_DETAILS: Preclinical pharmacokinetic study in rats
# Format: in vivo, Sprague-Dawley (SD) rats
# DETAILS: Sprague-Dawley, rat; male SD rats, oral gavage (p.o.) 10 mg/kg, plasma
Using Cmax as the sorting value, the categories are Low: < 500 ng/mL; Mid: ≥ 500 ng/mL and < 1000 ng/mL; High: ≥ 1000 ng/mL

• CC(C)n1c(N2CCOC2=O)nc2c(F)cc(-c3nc(N[C@@H]4CCOC[C@H]4O)ncc3Cl)cc21 [TB-24] = Mid
• C[C@H]1CCN(C)c2nc3c(F)cc(-c4nc(N[C@@H]5CCOC[C@H]5O)ncc4Cl)cc3n21 [TB-92] = High
• CC(C)n1c(N2CCOCC2)nc2c(F)cc(-c3nc(N[C@@H]4CCOC[C@H]4O)ncc3Cl)cc21 [TB-12] = Mid
• C[C@H]1CCN(c2ccccc2)c2nc3c(F)cc(-c4nc(N[C@@H]5CCOC[C@H]5O)ncc4Cl)cc3n21 [TA-33] = Low
• C[C@H]1CCN(C)c2nc3c(F)cc(-c4cc(N[C@@H]5CCOC[C@H]5O)ncc4Cl)cc3n21 [TB-149] = High
• CC(C)n1c(N2CCOC2=O)nc2c(F)cc(-c3nc(N[C@@H]4CCOC[C@H]4O)ncc3C(F)(F)F)cc21 [TB-27] = High
• C[C@H]1CCN(C)c2nc3c(F)cc(-c4nc(Nc5ccncc5)ncc4Cl)cc3n21 [TB-137] = High
• CCN1CCCn2c1nc1c(F)cc(-c3nc(N[C@@H]4CCOC[C@H]4O)ncc3Cl)cc12 [TB-109] = Mid
• C[C@H]1CCN(CC#N)c2nc3c(F)cc(-c4nc(N[C@@H]5CCOC[C@H]5O)ncc4Cl)cc3n21 [TC-2] = Low
• C[C@H]1CCN(C2CC2)c2nc3c(F)cc(-c4nc(N[C@@H]5CCOC[C@H]5O)ncc4Cl)cc3n21 [TA-4] = High
• CCS(=O)(=O)N1CCC(Nc2ncc(Cl)c(-c3cc(F)c4nc(N5CCOC5=O)n(C(C)C)c4c3)n2)CC1 [TB-31] = Mid
• C[C@H]1CCN(c2ccccc2F)c2nc3c(F)cc(-c4nc(N[C@@H]5CCOC[C@H]5O)ncc4Cl)cc3n21 [TC-12] = Low

* * *

# TGT: CDK6/CyclinD3 (Homo sapiens)
# Sequence (Q00534 whole entry): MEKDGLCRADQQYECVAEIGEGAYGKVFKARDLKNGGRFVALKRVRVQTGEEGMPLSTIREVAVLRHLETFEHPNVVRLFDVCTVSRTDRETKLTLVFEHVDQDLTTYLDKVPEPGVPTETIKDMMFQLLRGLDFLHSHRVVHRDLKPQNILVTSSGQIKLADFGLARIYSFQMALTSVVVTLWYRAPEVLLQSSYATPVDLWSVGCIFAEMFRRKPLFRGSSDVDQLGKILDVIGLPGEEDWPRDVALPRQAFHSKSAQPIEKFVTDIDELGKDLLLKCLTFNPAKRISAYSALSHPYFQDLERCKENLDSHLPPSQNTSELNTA
# Sequence (P30281 whole entry partner): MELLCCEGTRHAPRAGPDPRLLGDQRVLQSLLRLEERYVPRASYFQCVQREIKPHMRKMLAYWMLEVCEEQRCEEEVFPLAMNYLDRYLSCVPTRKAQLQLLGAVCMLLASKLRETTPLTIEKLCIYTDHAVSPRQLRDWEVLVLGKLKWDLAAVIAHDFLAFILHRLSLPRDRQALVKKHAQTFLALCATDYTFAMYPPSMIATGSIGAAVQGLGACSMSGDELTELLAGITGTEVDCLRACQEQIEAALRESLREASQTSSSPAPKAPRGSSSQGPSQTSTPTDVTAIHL
# EXPERIMENTAL_DETAILS: Kinase activity assay (MSA, EZ Reader) against CDK6
# DETAILS: CDK6/CyclinD3 5.00 nM, ATP 350 µM, FL-Peptide34, 10mM MgCl2
pIC50: −log10 of the molar value.
# pIC50 per entry
MEASURE_NAME: pIC50

• CC(C)n1c(N2CCOC2=O)nc2c(F)cc(-c3nc(NC4CCN(S(=O)(=O)C(C)C)CC4)ncc3Cl)cc21 [TB-32] = 6.84
• CC1CCN(C)c2nc3c(F)cc(-c4nc(NC5CCN(S(C)(=O)=O)CC5)ncc4Cl)cc3n21 (stereo not shown) [TB-51] = 7.56
• CNS(=O)(=O)N1CCC(Nc2ncc(Cl)c(-c3cc(F)c4nc5n(c4c3)CCCN5C)n2)CC1 [TB-144] = 6.90
• CC(C)n1c(N2CC[C@H](O)C2)nc2c(F)cc(-c3nc(N[C@@H]4CCOC[C@H]4O)ncc3Cl)cc21 [TB-6] = 6.72
• C[C@H]1CCN(c2ccc(F)cc2F)c2nc3c(F)cc(-c4nc(N[C@@H]5CCOC[C@H]5O)ncc4Cl)cc3n21 [TC-13] = 7.13
• CC(C)n1c(N2CCOC2=O)nc2c(F)cc(-c3nc(NC4CCN(S(=O)(=O)C5CC5)CC4)ncc3Cl)cc21 [TB-33] = 7.21
• C[C@@H]1C[C@H](C)n2c(nc3c(F)cc(-c4nc(N[C@@H]5CCOC[C@H]5O)ncc4Cl)cc32)N1C [TB-154] = 7.12
• CC(C)n1c(N2CCOC2=O)nc2c(F)cc(-c3ccnc(NC4CCN(S(C)(=O)=O)CC4)n3)cc21 [TB-94] = 6.34
• CC(C)n1c(N2CC[C@@H](O)C2)nc2c(F)cc(-c3nc(N[C@@H]4CCOC[C@H]4O)ncc3Cl)cc21 [TB-7] = 6.95
• COC(=O)N(C)c1nc2c(F)cc(-c3nc(N[C@@H]4CCOC[C@H]4O)ncc3Cl)cc2n1C(C)C [TB-8] = 6.48
• C[C@H]1CCN(C)c2nc3c(F)cc(-c4nc(Nc5ccncc5)ncc4Cl)cc3n21 [TB-137] = 6.76
• CC(C)n1c(N(C)C)nc2c(F)cc(-c3nc(Nc4ccc(N5CCNCC5)cn4)ncc3Cl)cc21 [TB-18] = 7.86
• CC(C)n1c(N(C)C)nc2c(F)cc(-c3nc(N[C@H]4CC[C@H](NS(C)(=O)=O)CC4)ncc3Cl)cc21 [TB-5] = 7.15
• CCS(=O)(=O)N1CCC(Nc2ncc(Cl)c(-c3cc(F)c4nc(N5CCOC5=O)n(C(C)C)c4c3)n2)CC1 [TB-31] = 6.74
• CC(C)n1c(N2CCOC2=O)nc2c(F)cc(-c3nc(NC4CCN(S(C)(=O)=O)CC4)ncc3Cl)cc21 [TB-26] = 6.70
• C[C@@H]1CCN(C)c2nc3c(F)cc(-c4nc(N[C@@H]5CCOC[C@H]5O)ncc4Cl)cc3n21 [TB-91] = 7.17
• CN1C(=O)CCn2c1nc1c(F)cc(-c3nc(N[C@@H]4CCOC[C@H]4O)ncc3Cl)cc12 [TB-46] = 6.61
• C[C@H]1CCN(c2ccccc2F)c2nc3c(F)cc(-c4nc(N[C@@H]5CCOC[C@H]5O)ncc4Cl)cc3n21 [TC-12] = 7.34
• CN1CCCn2c1nc1c(F)cc(-c3nc(NC4CCOCC4)ncc3Cl)cc12 [TB-132] = 6.61
• CC(C)n1c(N(C)C)nc2c(F)cc(-c3nc(NC4CCN(S(C)(=O)=O)CC4)ncc3Cl)cc21 [TB-3] = 7.13
• CN1CCn2c1nc1c(F)cc(-c3nc(N[C@@H]4CCOC[C@H]4O)ncc3Cl)cc12 [TB-45] = 6.62
• CN1CCCn2c1nc1c(F)cc(-c3nc(N[C@@H]4CCOC[C@H]4O)ncc3F)cc12 [TB-42] = 6.71
• COCc1cc(Nc2ncc(Cl)c(-c3cc(F)c4nc5n(c4c3)CCCN5C)n2)ccn1 [TB-130] = 6.81
• C[C@H]1CCN(CC#N)c2nc3c(F)cc(-c4nc(N[C@@H]5CCOC[C@H]5O)ncc4Cl)cc3n21 [TC-2] = 7.12
• C[C@H]1CCN(C)c2nc3c(F)cc(-c4cc(N[C@@H]5CCOC[C@H]5O)ncc4Cl)cc3n21 [TB-149] = 7.04
• CC(C)n1c(N2CCOC2=O)nc2c(F)cc(-c3nc(N[C@@H]4CCOC[C@H]4O)ncc3Cl)cc21 [TB-24] = 6.85
• CC(C)n1c(N2CCOC2=O)nc2c(F)cc(-c3nc(Nc4ccc(S(=O)(=O)NCCN(C)C)cc4)nc4[nH]cnc34)cc21 [TB-70] = 7.12
• CC(C)n1c(N2CCOC2=O)nc2c(F)cc(-c3nc(NC4CCN(S(C)(=O)=O)CC4(F)F)ncc3Cl)cc21 (stereo not shown) [TB-35] = 6.78
• CC1CCN(C)c2nc3c(F)cc(-c4nc(N[C@@H]5CCOC[C@H]5O)ncc4Cl)cc3n21 (mixture of isomers) [TB-44] = 7.04
• CC(C)n1c(N2CCOC2=O)nc2c(F)cc(-c3nc(Nc4ccc(S(=O)(=O)NCCN(C)C)cc4)ncc3Cl)cc21 [TB-38] = 7.12

* * *

Let's look at some compounds and their measured IC50.
# TGT: CDK4/CycD1 (Homo sapiens)
# Sequence (P11802 whole entry): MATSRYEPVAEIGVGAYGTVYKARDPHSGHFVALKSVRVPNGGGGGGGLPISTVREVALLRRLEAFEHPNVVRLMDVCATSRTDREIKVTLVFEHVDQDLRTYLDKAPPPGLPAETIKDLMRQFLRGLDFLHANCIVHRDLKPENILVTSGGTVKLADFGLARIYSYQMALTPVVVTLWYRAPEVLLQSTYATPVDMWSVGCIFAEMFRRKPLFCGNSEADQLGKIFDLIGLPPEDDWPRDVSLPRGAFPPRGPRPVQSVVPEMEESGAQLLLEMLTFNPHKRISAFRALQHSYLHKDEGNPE
# EXPERIMENTAL_DETAILS: Kinase activity assay (MSA, EZ Reader) against CDK4
MEASURE_NAME: IC50 (nM)

• CCS(=O)(=O)N1CCC(Nc2ncc(Cl)c(-c3cc(F)c4nc(N5CCOC5=O)n(C(C)C)c4c3)n2)CC1 = 15.3
• CC(C)n1c(N2CCOC2=O)nc2c(F)cc(-c3nc(Nc4ccc(S(=O)(=O)NCCN(C)C)cc4)nc4[nH]cnc34)cc21 = 18.5
• CC(C)n1c(N(C)C)nc2c(F)cc(-c3nc(NC4CCN(S(C)(=O)=O)CC4)ncc3Cl)cc21 = 6.97
• CC(C)n1c(N2CCOC2=O)nc2c(F)cc(-c3nc(NC4CCN(S(C)(=O)=O)CC4(F)F)ncc3Cl)cc21 (stereo not drawn) = 15.5
• CCN1CCN(Cc2ccc(Nc3ncc(Cl)c(-c4cc(F)c5nc(N(C)C)n(C(C)C)c5c4)n3)nc2)CC1 = 6.92
• CC(C)n1c(N2CCCC2)nc2c(F)cc(-c3nc(N[C@@H]4CCOC[C@H]4O)ncc3Cl)cc21 = 6.45
• CC(C)n1c(N(C)C)nc2c(F)cc(-c3nc(N[C@H]4CC[C@H](NS(C)(=O)=O)CC4)ncc3Cl)cc21 = 4.24
• CC1CCN(C)c2nc3c(F)cc(-c4nc(NC5CCN(S(C)(=O)=O)CC5)ncc4Cl)cc3n21 (stereo not drawn) = 2.23
• CC(C)n1c(N2CCOC2=O)nc2c(F)cc(-c3ccnc(NC4CCN(S(C)(=O)=O)CC4)n3)cc21 = 44.4
• CC(C)n1c(N2CCOC2=O)nc2c(F)cc(-c3nc(NC4CCN(S(=O)(=O)C5CC5)CC4)ncc3Cl)cc21 = 8.37
• COC(=O)N(C)c1nc2c(F)cc(-c3nc(N[C@@H]4CCOC[C@H]4O)ncc3Cl)cc2n1C(C)C = 18.8
• CC(C)n1c(N(C)C)nc2c(F)cc(-c3nc(N[C@@H]4CCN(S(C)(=O)=O)C[C@H]4O)ncc3Cl)cc21 = 1.27
• CC(C)n1c(N2CCOC2=O)nc2c(F)cc(-c3nc(N[C@@H]4CCOC[C@H]4O)ncc3Cl)cc21 = 10.1
• CC(C)n1c(N2CCOCC2)nc2c(F)cc(-c3nc(N[C@@H]4CCOC[C@H]4O)ncc3Cl)cc21 = 6.01
• C[C@H]1CCN(C2CC2)c2nc3c(F)cc(-c4nc(N[C@@H]5CCOC[C@H]5O)ncc4Cl)cc3n21 = 4.4
